This collection of values is drawn from ChEMBL document CHEMBL4680209.

System: Mycobacterium tuberculosis
Test: Inhibition of Mycobacterium tuberculosis QcrB T313A mutant assessed as reduction in bacterial growth by resazurin reduction microplate assay
quantityName: MIC (µM)
Value expressed in µM; do not type the unit.

1) COc1ccc2nc(C)cc(OCc3ccc(C(C)C)cc3)c2c1 7.8
2) COc1ccc2nc(C)cc(OCC(=O)c3ccccc3)c2c1 32.5
3) COc1ccc2nc(C)cc(OCC(=O)c3cccc(Cl)c3)c2c1 7.3
4) NNC(=O)c1ccncc1 2.3

Could you now look at the following compound, please?
get_value(item= "COc1ccc2nc(C)cc(OCc3ccc(Cl)c(Cl)c3)c2c1" , readout=MIC) returns 14.4
